- Test system: Serratia sp.
- PROCEDURE_DETAILS: Antimicrobial activity against Serratia El-U 9213 at 400 ug/ml
- Assay type: functional, organism-based
Active and inactive are the calls of the source. No cut-off for these calls is given here.
REPORTED_METRIC: Activity

CO[C@@]12C=C3[C@H](O)CC[C@H](C)[C@@]3(C)CC1=C(C)C(=O)O2
Active
CC1=C2C[C@@]3(C)C(=C[C@H]2OC1=O)[C@H](O)CC[C@@H]3C
inactive
CC1=C2C[C@@]3(C)C(=C[C@@]2(O)OC1=O)[C@H](O)CC[C@@H]3C
Active
CO[C@@]12C[C@@]34O[C@@H]3CC[C@H](C)[C@@]4(C)CC1=C(C)C(=O)O2
inactive
CO[C@@]12C[C@@H]3C(=O)CC[C@H](C)[C@@]3(C)CC1=C(C)C(=O)N2
inactive

Moving on to the next compound.
Any idea what Activity came out for `CC1=C2C[C@]3(C)[C@@H](C)CC[C@H]4O[C@]43C[C@@]2(O)OC1=O` on Serratia sp.?
Active
